Molecular target: UniProt Q6AYQ3
Sequence (Q6AYQ3 whole entry): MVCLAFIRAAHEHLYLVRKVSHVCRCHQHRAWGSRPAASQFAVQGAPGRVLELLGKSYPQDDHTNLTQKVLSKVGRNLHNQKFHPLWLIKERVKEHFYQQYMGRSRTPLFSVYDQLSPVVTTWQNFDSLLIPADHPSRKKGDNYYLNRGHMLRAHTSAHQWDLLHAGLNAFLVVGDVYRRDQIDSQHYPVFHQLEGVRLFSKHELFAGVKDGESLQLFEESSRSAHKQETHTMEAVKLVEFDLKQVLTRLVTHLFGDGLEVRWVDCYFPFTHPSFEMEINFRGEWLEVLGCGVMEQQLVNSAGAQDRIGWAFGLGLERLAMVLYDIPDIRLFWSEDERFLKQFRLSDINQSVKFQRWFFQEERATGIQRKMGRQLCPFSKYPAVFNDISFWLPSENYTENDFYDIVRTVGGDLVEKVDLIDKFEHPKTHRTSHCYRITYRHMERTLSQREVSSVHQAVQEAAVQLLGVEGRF

Molecule: OC(CNCc1ccccc1OCc1ccncc1)c1cc(Br)cs1 (stereo unspecified)
IC50, µM: 90

====

biological target: Phenylalanine--tRNA ligase alpha subunit (Streptococcus pneumoniae serotype 4 (strain ATCC BAA-334 / TIGR4)); assay: Inhibitory concentration against Streptococcus pneumoniae Phenylalanyl-tRNA synthetase
Sequence (Q97S36 whole entry): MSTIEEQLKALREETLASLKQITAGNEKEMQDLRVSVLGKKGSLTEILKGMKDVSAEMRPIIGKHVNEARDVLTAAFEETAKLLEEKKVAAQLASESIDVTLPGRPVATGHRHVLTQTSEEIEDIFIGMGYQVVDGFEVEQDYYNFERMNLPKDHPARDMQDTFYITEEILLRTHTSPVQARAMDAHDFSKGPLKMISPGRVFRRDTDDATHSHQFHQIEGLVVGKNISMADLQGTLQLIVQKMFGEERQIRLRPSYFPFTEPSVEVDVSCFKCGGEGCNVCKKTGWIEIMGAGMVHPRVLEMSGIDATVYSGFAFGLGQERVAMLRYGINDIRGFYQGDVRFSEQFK
pIC50: −log10 of the molar value.
# pIC50 listing for each entry below
Measured attribute: pIC50

Compound: OC(CNCc1ccccc1OCc1nc2ccccc2[nH]1)c1cc(Br)cs1 (centres undefined)
Sign qualifier: =
Result value: 6.60

Compound: OC(CNCc1ccccc1OCc1ccccc1)c1cc(Br)cs1 (centres undefined)
Sign qualifier: =
Result value: 6.55

Compound: OCCOc1ccccc1CNC[C@@H](O)c1cc(Br)cs1
Sign qualifier: =
Result value: 6.72

Compound: OCCOc1ccccc1CNC[C@H](O)c1cc(Br)cs1
Sign qualifier: <
Result value: 6.00

====

target: Phenylalanine--tRNA ligase alpha subunit (Staphylococcus aureus, UniProt P68849); assay: Inhibitory concentration against Staphylococcus aureus Phenylalanyl-tRNA synthetase
Sequence (P68849 whole entry): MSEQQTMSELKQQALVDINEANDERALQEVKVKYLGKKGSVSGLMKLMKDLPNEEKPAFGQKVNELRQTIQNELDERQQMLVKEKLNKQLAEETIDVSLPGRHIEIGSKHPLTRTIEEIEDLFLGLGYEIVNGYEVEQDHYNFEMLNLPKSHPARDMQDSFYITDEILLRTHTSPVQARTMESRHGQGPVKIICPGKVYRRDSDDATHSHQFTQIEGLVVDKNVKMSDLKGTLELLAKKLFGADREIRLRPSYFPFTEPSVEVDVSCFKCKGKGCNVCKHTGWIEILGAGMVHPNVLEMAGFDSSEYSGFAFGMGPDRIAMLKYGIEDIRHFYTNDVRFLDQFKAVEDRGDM
Measured attribute: IC50

Molecule: OC(CNCc1ccccc1OCc1ccccc1)c1cc(C(F)(F)F)cc(C(F)(F)F)c1 (stereo unspecified)
Measured attribute: IC50
Result value: > 10 µM

Molecule: COc1ccccc1CNCC(O)c1cccc(OCc2ccccc2)c1 (stereo unspecified)
Measured attribute: IC50
Result value: > 10 µM

Molecule: COc1ccccc1CNCC(O)c1ccccc1C(F)(F)F (stereo unspecified)
Measured attribute: IC50
Result value: > 10 µM

Molecule: OCCOc1ccccc1CNC[C@H](O)c1cc(Br)cs1
Measured attribute: IC50
Result value: > 1 µM

Molecule: COc1ccccc1CNCC(O)c1cc(C(F)(F)F)ccc1C(F)(F)F (stereo unspecified)
Measured attribute: IC50
Result value: > 10 µM

Molecule: COc1ccccc1CNCC(O)c1ccc(C(F)(F)F)cc1 (stereo unspecified)
Measured attribute: IC50
Result value: > 10 µM
